Test: In vivo tissue distribution test
Design: species or system ICR mice
Settings: male, mouse, testicle, po; ICR mice, p.o. 100 mg/kg, 8 hr; read-out: Testicle concentration
PROPERTY: concentration at 8 h (ng/g)
The reply should contain only the number, in ng/g.

> print(dat)
                                   compound              property  result.unit  quantitative.readout
1  CON=C1CN(c2nc3c(cc2F)c(=O)c(C(=O)O)cn3C2CC2)C[C@@]1(C)CN.Cl [Hydrochloride (Comparative Example 3)]  concentration at 8 h         ng/g                  7770

Consider now this further compound.
Specify concentration at 8 h for CO/N=C1/CN(c2nc3c(cc2F)c(=O)c(C(=O)O)cn3C2CC2)C[C@@]1(C)CN [L-aspartate (Example 1)] and stop. 6970

* * *

Test: In vivo tissue distribution test
Parameters: species or system ICR mice
Details: mouse, muscle, po; ICR mice, p.o. 100 mg/kg, 8 hr; read-out: Muscle concentration
PROPERTY: concentration at 8 h (ng/g)
Give your result in ng/g as a bare value.

> print(dat)
                                   compound  quantitative.readout
1  CO/N=C1/CN(c2nc3c(cc2F)c(=O)c(C(=O)O)cn3C2CC2)C[C@@]1(C)CN [L-aspartate (Example 1)]                  6930

Shifting focus to the compound that follows.
Return concentration at 8 h for the following compound: CON=C1CN(c2nc3c(cc2F)c(=O)c(C(=O)O)cn3C2CC2)C[C@@]1(C)CN.Cl [Hydrochloride (Comparative Example 3)] 8260

* * *

Assay: In vivo tissue distribution test
Set-up: species or system ICR mice
Conditions: mouse, testicle, po; ICR mice, p.o. 100 mg/kg, 5 hr; read-out: Testicle concentration
Quick reference: concentration at 5 h of the listed items.
A number alone suffices; assume ng/g.

> print(dat)
                                   molecule  quantitative.readout
1  CON=C1CN(c2nc3c(cc2F)c(=O)c(C(=O)O)cn3C2CC2)C[C@@]1(C)CN.Cl [Hydrochloride (Comparative Example 3)]                 12900

# ---- query molecule ----
Retrieve concentration at 5 h measured for CO/N=C1/CN(c2nc3c(cc2F)c(=O)c(C(=O)O)cn3C2CC2)C[C@@]1(C)CN [L-aspartate (Example 1)] and print it. 11500

* * *

Entries and their concentration at 1.5 h
Experiment: In vivo tissue distribution test
Set-up: species or system ICR mice
Conditions: mouse, lung, po; ICR mice, p.o. 100 mg/kg, 1.5 hr; read-out: Lung concentration
# number only, unit ng/g dropped from output

> print(dat)
                                   compound  quantitative.readout
1  CON=C1CN(c2nc3c(cc2F)c(=O)c(C(=O)O)cn3C2CC2)C[C@@]1(C)CN.Cl [Hydrochloride (Comparative Example 3)]                 73600

Return reported concentration at 1.5 h. Input compound: CO/N=C1/CN(c2nc3c(cc2F)c(=O)c(C(=O)O)cn3C2CC2)C[C@@]1(C)CN [L-aspartate (Example 1)] 71500
